Assay: Human plasma pharmacokinetic parameters of trazodone collected from the literature
Assay type: in vivo
Conditions: human, plasma; PO, mean of literature values
parameter: Tmax (h)
Give bare numbers, in h.

In: What measured Tmax goes with "O=c1n(CCCN2CCN(c3cccc(Cl)c3)CC2)nc2ccccn12" ?
Out: 1.5

* * *

Assay: Human plasma pharmacokinetic parameters of trazodone collected from the literature
Format: in vivo
Details: human, plasma; PO, mean of literature values
parameter: half-life (h)
Give bare numbers, in h.

In: What measured half-life goes with O=c1n(CCCN2CCN(c3cccc(Cl)c3)CC2)nc2ccccn12 [trazodone] ?
Out: 9.1

* * *

Experiment: Plasma protein binding, rapid equilibrium dialysis, human plasma
Type: in vitro ADME
Conditions: pH 7.4, 37° C.
parameter: fraction unbound at 4 h, 5 μM
Answers are plain numbers.

In: What measured fraction unbound at 4 h, 5 μM goes with "O=c1n(CCCN2CCN(c3cccc(Cl)c3)CC2)nc2ccccn12" ?
Out: 0.098
